target of assay: T1, human 4-1BB-His protein (human, UniProt Q07011 24-186)
T1 construct: Recombinant His-tagged protein; also called human 4-1BB-his tag; recombinant 4-1BB protein; not shown: His tag
assay: SPR, Biacore T200, antibody captured on Protein A chip, human 4-1BB-His as analyte
readout kind: koff (s⁻¹)
Your answer should be a plain number; it is taken to be in s⁻¹.

Check out these entries, answers already filled in.
B31-V6 humanized antibody (VHH, Humanized VHH captured on a Protein A chip; also called B31 VHH-V6) VHH: QVQLVESGGGLVQPGGSLRLSCSASGDIFSIMFWYRQAPGKQREYVAHITSNGRTNYADSVTGRFTISRDNSKNTLYLQMNSLRAEDTAVYYCARDDATNTRTYWGQGTLVTVSS = 0.00156
B16-V2 humanized antibody (VHH, Humanized VHH; also called B16 VHH-V2) VHH: EVQLVESGGGLVQPGGSLRLSCAASGFTFSYYAIGWFRQAPGKEREGVSCISSSDGSTYYADSVKGRFTISRDNSKNTLYLQMNSLRAEDTAVYYCATDTTTRCPIWSYYVESDYWGQGTLVTVSS = 0.0898
B31-V4 humanized antibody (VHH, Humanized VHH captured on a Protein A chip; also called B31 VHH-V4) VHH: QVQLVESGGGLVQPGGSLRLSCAASGDIFSIMFWYRQAPGKQREYVAHITSNGRTNYADSVTGRFTISRDNSKNTMYLQMDSLRAEDTAVYYCAADDATNTRTYWGQGTLVTVSS = 0.00545

Next item in the queue.
Sample B210-V2 humanized antibody (VHH, Humanized VHH; also called B210 VHH-V2) VHH: EVQLVESGGGLVQPGGSLRLSCAASGFTFSYYAIGWFRQAPGKEREGVSCISSSGRSTNYADSVKGRFTISRDNSKNTLYLQMNSLRAEDTAVYYCATDTTTRCPIWSNYVESDYWGQGTLVTVSS ; koff observed: 0.041

Origin of the recorded values: patent US20240417482A1
